Provenance of the data: the RNAGym collection of RNA variant scans (doi:10.1073/pnas.2313332121)

B1: TPR 5TU (parent)
chain: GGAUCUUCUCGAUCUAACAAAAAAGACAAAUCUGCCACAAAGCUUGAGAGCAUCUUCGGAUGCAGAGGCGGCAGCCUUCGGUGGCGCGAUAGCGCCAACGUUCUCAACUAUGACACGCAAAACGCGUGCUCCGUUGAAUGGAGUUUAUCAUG

Variants of: B1
EXPERIMENTAL PROTOCOL: polymerase ribozyme fitness, log enrichment relative to wild type (log ratio); higher = more active; in vitro selection for triplet polymerase activity
Variants at the floor of the assay were thinned out.
Examples of variants with documented polymerase ribozyme fitness (log ratio) follow.
Answer with a bare number; do not write a unit.

Sample records with polymerase ribozyme fitness (log ratio):
mutation_notation="A12G A89C C96G" readout_type="polymerase ribozyme fitness (log ratio)" measured_result=-1.66
mutation_notation="U4A G94A" readout_type="polymerase ribozyme fitness (log ratio)" measured_result=-0.663
mutation_notation="G94A U127G U146G" readout_type="polymerase ribozyme fitness (log ratio)" measured_result=-3.33
mutation_notation="A19U U53A C85A" readout_type="polymerase ribozyme fitness (log ratio)" measured_result=-3.78
mutation_notation="C54A A115C" readout_type="polymerase ribozyme fitness (log ratio)" measured_result=-1.87
mutation_notation="G83U A98U C105U" readout_type="polymerase ribozyme fitness (log ratio)" measured_result=-0.156

Problem: Tell us which polymerase ribozyme fitness (log ratio) value is on record for U53C G58A C99G
Result: -0.95

Problem: Return polymerase ribozyme fitness (log ratio) (reported value) for this variant: A28C U144G
Result: -4.03

Problem: # return recorded polymerase ribozyme fitness (log ratio) for entry A52C C57G
Result: -1.79

Problem: Look up polymerase ribozyme fitness (log ratio) of C93U U146A and report it.
Result: -1.46

Problem: Determine from records and report polymerase ribozyme fitness (log ratio) for C96A A106C
Result: -0.591

Problem: Tell me polymerase ribozyme fitness (log ratio) reported for C35U G74C C99U
Result: -4.12

Problem: Tell me its polymerase ribozyme fitness (log ratio) given C36G C95A as the entry.
Result: -3.65
